target: N-arachidonyl glycine receptor (Homo sapiens) (UniProt Q14330); experiment: Agonist activity at recombinant human GPR18 expressed in CHO cells assessed as increase in beta-arrestin recruitment incubated for 60 mins measured for 1 sec by luminescence assay; format: functional, cell-based
Sequence (Q14330 whole entry): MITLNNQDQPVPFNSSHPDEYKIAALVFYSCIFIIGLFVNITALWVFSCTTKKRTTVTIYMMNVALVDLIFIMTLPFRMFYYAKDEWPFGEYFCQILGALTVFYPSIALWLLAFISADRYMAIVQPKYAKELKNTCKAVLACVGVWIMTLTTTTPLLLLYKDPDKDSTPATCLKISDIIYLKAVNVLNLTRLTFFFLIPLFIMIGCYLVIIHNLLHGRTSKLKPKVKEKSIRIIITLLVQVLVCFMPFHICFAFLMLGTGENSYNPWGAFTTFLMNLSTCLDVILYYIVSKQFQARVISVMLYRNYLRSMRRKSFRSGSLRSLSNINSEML
endpoint: %max (%)
// units = %; emit number, no label

Solved cases below.
CSC1=N/C(=C\c2cccc(OCc3ccc(Cl)cc3)c2)C(=O)N1C :: -2
CSC1=NC(=O)/C(=C/c2cccc(OCc3ccc(Cl)cc3)c2)N1 :: 31
O=C1NC(=O)/C(=C/c2cccc(OCc3ccc(Cl)cc3)c2)S1 :: -1
O=C1/C(=C/c2cccc(OCc3ccc(F)cc3)c2)N=C2SCCCN12 :: 6
O=C1/C(=C/c2cccc(OCc3ccc(Br)cc3)c2)N=C2SCCCN12 :: -9

[in] Given the compound O=C1/C(=C/c2cccc(OCCCCOc3ccc(Cl)cc3)c2)N=C2SCCCN12 , what is its reported %max?
[out] -16

[in] Given the compound Cc1ccc(CSC2=N/C(=C\c3cccc(OCc4ccc(Cl)cc4)c3)C(=O)N2C)cc1 , what is its reported %max?
[out] 7

[in] Given the compound O=C1NC(SCc2ccc(F)cc2)=N/C1=C\c1cccc(OCc2ccc(Cl)cc2)c1 , what is its reported %max?
[out] 23

[in] Given the compound CC(C)c1ccc(OCCCCCCOc2cccc(/C=C3\N=C4SCCCN4C3=O)c2)cc1 , what is its reported %max?
[out] 15

[in] Given the compound CN1C(=N)NC(=O)/C1=C/c1cccc(OCc2ccc(Cl)cc2)c1 , what is its reported %max?
[out] 6

----------
Measured Imax by item
molecular target: G-protein coupled receptor 55 (Homo sapiens); test: Antagonist activity at recombinant human GPR55 expressed in CHO cells assessed as inhibition of lysophosphatidylinositol-induced beta-arrestin recruitment preincubated for 60 mins followed by lysophosphatidylinositol addition for 90 mins measured for 1 sec by luminescence assay; format: functional, cell-based
Sequence (Q9Y2T6 whole entry): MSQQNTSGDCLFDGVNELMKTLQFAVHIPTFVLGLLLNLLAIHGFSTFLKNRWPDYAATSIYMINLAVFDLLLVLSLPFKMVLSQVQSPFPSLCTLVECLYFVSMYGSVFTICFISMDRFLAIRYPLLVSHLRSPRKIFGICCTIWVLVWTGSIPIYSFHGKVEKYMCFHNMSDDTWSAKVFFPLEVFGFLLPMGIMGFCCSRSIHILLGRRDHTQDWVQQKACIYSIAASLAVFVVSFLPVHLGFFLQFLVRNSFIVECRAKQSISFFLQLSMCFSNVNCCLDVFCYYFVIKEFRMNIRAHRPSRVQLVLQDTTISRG

Solved cases below.
Cc1ccc(COc2cccc(/C=C3\N=C4SCCCN4C3=O)c2)cc1 :: 134%
Cc1ccc(OCCCCCCOc2cccc(/C=C3\N=C4SCCCN4C3=O)c2)cc1 :: 86%
CSC1=NC(=O)/C(=C/c2cccc(OCc3ccc(Cl)cc3)c2)N1 :: 47%

[in] Write down the reported Imax of CSC1=N/C(=C\c2cccc(OCc3ccc(Cl)cc3)c2)C(=O)N1C , test system: G-protein coupled receptor 55 (Homo sapiens).
[out] 35%

[in] Write down the reported Imax of CN1C(=N)NC(=O)/C1=C/c1cccc(OCc2ccc(Cl)cc2)c1 , test system: G-protein coupled receptor 55 (Homo sapiens).
[out] -5%

[in] Write down the reported Imax of O=C1/C(=C/c2cccc(OCCCCCCOc3ccccc3Cl)c2)N=C2SCCCN12 , test system: G-protein coupled receptor 55 (Homo sapiens).
[out] 79%

[in] Write down the reported Imax of O=C1/C(=C/c2cccc(OCCCCOc3ccc(Cl)cc3)c2)N=C2SCCCN12 , test system: G-protein coupled receptor 55 (Homo sapiens).
[out] 26%

[in] Write down the reported Imax of O=C1NC(=O)/C(=C/c2cccc(OCc3ccc(Cl)cc3)c2)S1 , test system: G-protein coupled receptor 55 (Homo sapiens).
[out] -1%

[in] Write down the reported Imax of O=C1/C(=C/c2cccc(OCCCCCOc3ccc(Cl)cc3)c2)N=C2SCCCN12 , test system: G-protein coupled receptor 55 (Homo sapiens).
[out] 124%

[in] Write down the reported Imax of O=C1/C(=C/c2cccc(OCc3ccc(Br)cc3)c2)N=C2SCCCN12 , test system: G-protein coupled receptor 55 (Homo sapiens).
[out] 116%

[in] Write down the reported Imax of O=C1/C(=C/c2cccc(OCCCc3ccccc3)c2)N=C2SCCCN12 , test system: G-protein coupled receptor 55 (Homo sapiens).
[out] 132%

[in] Write down the reported Imax of O=C1NC(SCc2ccccc2)=N/C1=C\c1cccc(OCc2ccc(Cl)cc2)c1 , test system: G-protein coupled receptor 55 (Homo sapiens).
[out] 17%

[in] Write down the reported Imax of O=C1/C(=C/c2cccc(OCc3ccc(Cl)cc3)c2)N=C2SCCN12 , test system: G-protein coupled receptor 55 (Homo sapiens).
[out] 42%

[in] Write down the reported Imax of O=C1NC(SCc2ccc(F)cc2)=N/C1=C\c1cccc(OCc2ccc(Cl)cc2)c1 , test system: G-protein coupled receptor 55 (Homo sapiens).
[out] 44%

[in] Write down the reported Imax of O=C1/C(=C/c2cccc(OCCc3ccccc3)c2)N=C2SCCCN12 , test system: G-protein coupled receptor 55 (Homo sapiens).
[out] 130%

[in] Write down the reported Imax of O=C1NC(SCCc2ccccc2)=N/C1=C\c1cccc(OCc2ccc(Cl)cc2)c1 , test system: G-protein coupled receptor 55 (Homo sapiens).
[out] 27%

[in] Write down the reported Imax of O=C1/C(=C/c2cccc(OCCCOc3ccc(Cl)cc3)c2)N=C2SCCCN12 , test system: G-protein coupled receptor 55 (Homo sapiens).
[out] 38%

[in] Write down the reported Imax of Cc1ccc(CSC2=N/C(=C\c3cccc(OCc4ccc(Cl)cc4)c3)C(=O)N2C)cc1 , test system: G-protein coupled receptor 55 (Homo sapiens).
[out] 33%

----------
biological target: Cannabinoid receptor 2 (Homo sapiens, UniProt P34972); experiment: Displacement of [3H]CP55940 from recombinant human CB2 receptor expressed in CHO cell membranes after 2 hrs by liquid scintillation counting method; parameters: concentration or dose not given beside the values; conditions: concentration not given here
Sequence (P34972 whole entry): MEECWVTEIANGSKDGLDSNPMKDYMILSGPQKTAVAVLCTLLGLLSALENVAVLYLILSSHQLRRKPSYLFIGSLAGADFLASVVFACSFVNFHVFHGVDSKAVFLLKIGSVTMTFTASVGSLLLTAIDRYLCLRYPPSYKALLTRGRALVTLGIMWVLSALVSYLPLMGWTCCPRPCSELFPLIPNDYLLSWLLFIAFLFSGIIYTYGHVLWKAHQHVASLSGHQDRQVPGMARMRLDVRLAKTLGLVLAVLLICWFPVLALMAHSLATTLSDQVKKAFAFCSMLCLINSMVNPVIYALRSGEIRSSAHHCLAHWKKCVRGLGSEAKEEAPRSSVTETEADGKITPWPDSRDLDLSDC
Measured inhibition by item
// units = %; emit number, no label

Solved cases below.
O=C1NC(=O)/C(=C/c2cccc(OCc3ccc(Cl)cc3)c2)S1 :: 41
Cc1ccc(CSC2=N/C(=C\c3cccc(OCc4ccc(Cl)cc4)c3)C(=O)N2C)cc1 :: 25
O=C1NC(SCCc2ccccc2)=N/C1=C\c1cccc(OCc2ccc(Cl)cc2)c1 :: 33
O=C1/C(=C/c2cccc(OCCCCCCOc3ccc(Cl)cc3)c2)N=C2SCCCN12 :: 12
O=C1/C(=C/c2cccc(OCCCCCCCCOc3ccc(Cl)cc3)c2)N=C2SCCCN12 :: -3

[in] Given the compound O=C1NC(SCc2ccc(F)cc2)=N/C1=C\c1cccc(OCc2ccc(Cl)cc2)c1 , what is its reported inhibition?
[out] 19

[in] Given the compound Cc1cccc(C)c1OCCCCCCOc1cccc(/C=C2\N=C3SCCCN3C2=O)c1 , what is its reported inhibition?
[out] 46

[in] Given the compound O=C1/C(=C/c2cccc(OCc3ccc(Br)cc3)c2)N=C2SCCCN12 , what is its reported inhibition?
[out] 4

[in] Given the compound O=C1/C(=C/c2cccc(OCCCCCCCOc3ccc(Cl)cc3)c2)N=C2SCCCN12 , what is its reported inhibition?
[out] 15

[in] Given the compound O=C1/C(=C/c2cccc(OCCCc3ccccc3)c2)N=C2SCCCN12 , what is its reported inhibition?
[out] 23

[in] Given the compound Cc1ccc(COc2cccc(/C=C3\N=C4SCCCN4C3=O)c2)cc1 , what is its reported inhibition?
[out] 25

[in] Given the compound CC(C)c1ccc(OCCCCCCOc2cccc(/C=C3\N=C4SCCCN4C3=O)c2)cc1 , what is its reported inhibition?
[out] 46

[in] Given the compound O=C1/C(=C/c2cccc(OCc3ccc(F)cc3)c2)N=C2SCCCN12 , what is its reported inhibition?
[out] 46

[in] Given the compound O=C1/C(=C/c2cccc(OCCCOc3ccc(Cl)cc3)c2)N=C2SCCCN12 , what is its reported inhibition?
[out] -2

[in] Given the compound Cc1ccc(CSC2=N/C(=C\c3cccc(OCc4ccc(Cl)cc4)c3)C(=O)N2)cc1 , what is its reported inhibition?
[out] 22

[in] Given the compound O=C1NC(SCc2ccc(Br)cc2)=N/C1=C\c1cccc(OCc2ccc(Cl)cc2)c1 , what is its reported inhibition?
[out] 36

[in] Given the compound O=C1/C(=C/c2cccc(OCCc3ccccc3)c2)N=C2SCCCN12 , what is its reported inhibition?
[out] 19

[in] Given the compound CCc1ccc(OCCCCCCOc2cccc(/C=C3\N=C4SCCCN4C3=O)c2)cc1 , what is its reported inhibition?
[out] 13

[in] Given the compound Cc1ccc(OCCCCCCOc2cccc(/C=C3\N=C4SCCCN4C3=O)c2)cc1 , what is its reported inhibition?
[out] 12

----------
target: Cannabinoid receptor 1 (Homo sapiens); assay: Displacement of [3H]CP55940 from recombinant human CB1 receptor expressed in CHO cell membranes after 2 hrs by liquid scintillation counting method
Sequence (P21554 whole entry): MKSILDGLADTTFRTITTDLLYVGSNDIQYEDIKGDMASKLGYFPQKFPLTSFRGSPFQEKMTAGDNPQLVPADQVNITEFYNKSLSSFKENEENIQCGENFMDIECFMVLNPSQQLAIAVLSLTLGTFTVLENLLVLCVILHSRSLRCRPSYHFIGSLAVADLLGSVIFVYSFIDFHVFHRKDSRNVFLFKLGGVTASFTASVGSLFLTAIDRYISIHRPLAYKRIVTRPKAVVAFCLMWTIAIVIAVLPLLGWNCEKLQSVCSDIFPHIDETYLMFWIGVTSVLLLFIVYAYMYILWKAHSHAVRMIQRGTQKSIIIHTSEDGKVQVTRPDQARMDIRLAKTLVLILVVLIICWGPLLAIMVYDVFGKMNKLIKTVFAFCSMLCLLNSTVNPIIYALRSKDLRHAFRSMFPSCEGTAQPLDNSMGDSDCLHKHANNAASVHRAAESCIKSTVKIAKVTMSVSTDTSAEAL
endpoint: Ki

Solved cases below.
O=C1/C(=C/c2cccc(OCCCOc3ccc(Cl)cc3)c2)N=C2SCCCN12 :: > 10 µM
O=C1/C(=C/c2cccc(OCc3ccc(F)cc3)c2)N=C2SCCCN12 :: > 10 µM
O=C1NC(SCc2ccccc2)=N/C1=C\c1cccc(OCc2ccc(Cl)cc2)c1 :: > 10 µM

[in] Given the molecule CSC1=NC(=O)/C(=C/c2cccc(OCc3ccc(Cl)cc3)c2)N1 , what is its reported Ki?
[out] 2.21 µM

[in] Given the molecule O=C1/C(=C/c2cccc(OCCOc3ccc(Cl)cc3)c2)N=C2SCCCN12 , what is its reported Ki?
[out] > 10 µM

[in] Given the molecule O=C1/C(=C/c2cccc(OCCc3ccccc3)c2)N=C2SCCCN12 , what is its reported Ki?
[out] > 10 µM
